Catalogue of Percent Effect values
MEASUREMENT_TARGET: Protein translocase subunit SecA (Escherichia coli (strain K12)) (UniProt P10408)
Sequence (P10408 whole entry): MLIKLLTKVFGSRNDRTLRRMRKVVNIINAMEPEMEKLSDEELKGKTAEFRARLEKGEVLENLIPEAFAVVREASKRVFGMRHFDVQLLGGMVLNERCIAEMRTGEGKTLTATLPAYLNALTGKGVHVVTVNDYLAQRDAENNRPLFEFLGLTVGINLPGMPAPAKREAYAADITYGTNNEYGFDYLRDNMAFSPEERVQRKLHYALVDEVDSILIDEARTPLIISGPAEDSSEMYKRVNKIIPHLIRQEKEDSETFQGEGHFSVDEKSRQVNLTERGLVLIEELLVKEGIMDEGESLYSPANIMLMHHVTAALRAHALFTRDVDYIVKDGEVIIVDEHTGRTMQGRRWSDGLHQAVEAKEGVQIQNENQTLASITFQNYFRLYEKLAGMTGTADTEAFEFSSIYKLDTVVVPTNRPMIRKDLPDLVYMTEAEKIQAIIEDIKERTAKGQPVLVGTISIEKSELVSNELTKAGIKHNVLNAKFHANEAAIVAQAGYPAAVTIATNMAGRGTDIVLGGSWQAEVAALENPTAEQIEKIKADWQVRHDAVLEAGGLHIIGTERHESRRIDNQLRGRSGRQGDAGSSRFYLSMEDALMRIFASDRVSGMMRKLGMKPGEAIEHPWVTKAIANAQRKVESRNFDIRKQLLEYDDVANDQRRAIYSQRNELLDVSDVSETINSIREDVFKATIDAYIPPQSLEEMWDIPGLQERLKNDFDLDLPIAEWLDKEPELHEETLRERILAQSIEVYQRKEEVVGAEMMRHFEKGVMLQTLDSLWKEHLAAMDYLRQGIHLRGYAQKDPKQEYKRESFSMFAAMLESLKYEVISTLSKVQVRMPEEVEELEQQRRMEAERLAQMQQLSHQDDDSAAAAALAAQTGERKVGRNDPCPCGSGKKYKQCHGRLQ
ASSAY_INFO: Assay to Identify E. coli SecA ATPase Inhibitors
Format: functional
Set-up: scale not given: direction of the effect not stated beside the values
ASSAY_CONTEXT: 30 µM
Measured potencies and affinities stand elsewhere.
METRIC_NAME: Percent Effect (%)

> print(dat)
                                    compound                        measurement.target  units.symbol  recorded.number
 1          NC(=O)NC(=O)CCN1CCCN(c2nccs2)CC1  Protein translocase subunit SecA (Escherichia coli (strain K12)) (UniProt P10408)             %            -0.41
 2  CN(C)CC(=O)N1C[C@H]2CCC[C@@]2(COc2ccccn2)C1  Protein translocase subunit SecA (Escherichia coli (strain K12)) (UniProt P10408)             %            -8.78
 3     Cn1cc(NC(=O)N2CCC(c3ccccc3)CC2)ccc1=O  Protein translocase subunit SecA (Escherichia coli (strain K12)) (UniProt P10408)             %            -1.84
 4  Cc1ccc(NC2CCN(C(=O)c3cccc4ncccc34)CC2)nn1  Protein translocase subunit SecA (Escherichia coli (strain K12)) (UniProt P10408)             %            -3.89
 5      CCN1CCN(C(=O)NCCOc2ccc3c(c2)OCO3)CC1  Protein translocase subunit SecA (Escherichia coli (strain K12)) (UniProt P10408)             %            -3.49
 6  O=C(O)c1csc(S(=O)(=O)Nc2cccc(OC(F)F)c2)c1  Protein translocase subunit SecA (Escherichia coli (strain K12)) (UniProt P10408)             %            -5.06
 7    CCN1CCC2(C=C(C(=O)NC3CC3)c3ccccc32)CC1  Protein translocase subunit SecA (Escherichia coli (strain K12)) (UniProt P10408)             %              2.3
 8  Cc1cncc(C2CCCN(C(=O)c3c[nH]c(=O)[nH]c3=O)C2)n1 (stereo unspecified)  Protein translocase subunit SecA (Escherichia coli (strain K12)) (UniProt P10408)             %            0.496
 9  Cc1cccc(N2CCN(C(=O)Nc3cnn(CC(N)=O)c3)CC2)c1  Protein translocase subunit SecA (Escherichia coli (strain K12)) (UniProt P10408)             %            0.381
10  CCS(=O)(=O)N1CCC2(CC1)CN(Cc1ccccn1)C(=O)CO2  Protein translocase subunit SecA (Escherichia coli (strain K12)) (UniProt P10408)             %             2.67
11  COc1cc(C)nc(N2CCN(C(=O)COCC(F)(F)F)CC2)n1  Protein translocase subunit SecA (Escherichia coli (strain K12)) (UniProt P10408)             %             -3.6

* * *

Catalogue of Percent Effect values
MEASUREMENT_TARGET: Ubiquitin-activating enzyme e1, putative (Leishmania donovani (strain BPK282A1)) (UniProt E9BSI1)
Sequence (E9BSI1 as listed by the source): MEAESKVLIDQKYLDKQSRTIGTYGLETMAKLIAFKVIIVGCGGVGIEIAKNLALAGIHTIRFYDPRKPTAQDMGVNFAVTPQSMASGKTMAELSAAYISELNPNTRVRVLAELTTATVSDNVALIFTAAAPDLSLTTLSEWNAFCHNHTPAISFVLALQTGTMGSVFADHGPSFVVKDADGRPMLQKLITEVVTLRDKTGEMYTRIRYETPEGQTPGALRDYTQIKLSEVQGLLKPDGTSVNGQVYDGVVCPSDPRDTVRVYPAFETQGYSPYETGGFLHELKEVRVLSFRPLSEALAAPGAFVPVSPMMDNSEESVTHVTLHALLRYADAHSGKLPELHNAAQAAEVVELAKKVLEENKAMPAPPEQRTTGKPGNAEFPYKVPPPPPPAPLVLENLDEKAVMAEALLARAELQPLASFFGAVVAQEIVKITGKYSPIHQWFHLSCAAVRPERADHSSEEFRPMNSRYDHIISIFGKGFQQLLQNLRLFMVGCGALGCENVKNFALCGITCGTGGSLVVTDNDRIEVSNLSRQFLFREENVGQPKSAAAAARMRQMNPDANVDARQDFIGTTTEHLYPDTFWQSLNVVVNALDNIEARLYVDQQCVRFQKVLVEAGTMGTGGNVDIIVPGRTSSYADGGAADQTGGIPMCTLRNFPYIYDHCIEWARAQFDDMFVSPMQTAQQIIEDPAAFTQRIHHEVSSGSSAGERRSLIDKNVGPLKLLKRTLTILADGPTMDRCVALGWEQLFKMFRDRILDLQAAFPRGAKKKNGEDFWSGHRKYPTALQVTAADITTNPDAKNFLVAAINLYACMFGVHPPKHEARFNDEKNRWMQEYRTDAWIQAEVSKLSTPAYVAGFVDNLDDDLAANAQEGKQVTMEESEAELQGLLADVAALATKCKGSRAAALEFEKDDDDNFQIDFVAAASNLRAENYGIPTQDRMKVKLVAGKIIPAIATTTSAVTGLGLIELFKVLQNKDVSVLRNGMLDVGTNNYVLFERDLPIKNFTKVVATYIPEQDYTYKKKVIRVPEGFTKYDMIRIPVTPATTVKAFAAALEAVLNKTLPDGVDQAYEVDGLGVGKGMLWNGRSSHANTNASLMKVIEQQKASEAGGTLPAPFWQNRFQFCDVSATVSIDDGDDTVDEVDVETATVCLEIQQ
ASSAY_INFO: Leishmania donovani Ubiquitin Activating Enzyme (LdE1)
Type: functional
Parameters: scale not given: direction of the effect not stated beside the values
ASSAY_CONTEXT: 30 µM
Entries with a potency or affinity are not part of this list.
METRIC_NAME: Percent Effect (%)

> print(dat)
                                    molecule     metric.name  recorded.number
 1  c1cnnc(N2CCCC2CNCc2ccsc2)c1 (stereo not given)  Percent Effect            -5.13
 2  O=C(NCC1CCSCC1)N(CCCO)C1CCc2ccccc21 (stereo not given)  Percent Effect                8
 3  CC(=O)N1N=C(c2ccccc2)OC1C(=O)NCCc1cccc(Cl)c1 (stereo not given)  Percent Effect             6.67
 4  Cc1noc(C)c1CN(C)C(=O)NC1CCN(c2ncccn2)CC1  Percent Effect             10.3
 5  Cc1ncc(-c2ccnc(N3CCCCCC3)n2)c(-c2cccnc2)n1  Percent Effect             10.7
 6  O=C1C[C@H]2[C@@H](CCN2C(=O)Cc2cccs2)N1Cc1cccnc1  Percent Effect             9.09
 7  O=C(NCC1CCOC1)Nc1ccc(OCC(F)(F)F)nc1 (stereo not given)  Percent Effect             7.69
 8  COc1ccc(CN2CCC3(CC(Nc4ccncn4)C3)C2)c(OC)c1 (stereo not given)  Percent Effect             9.33
 9  CN(C)S(=O)(=O)N1CCCC(c2cccc(Cc3ccccc3)n2)C1 (stereo not given)  Percent Effect             6.67
10  Cc1ccc(C(=O)N2CCCC3(CCCC(=O)N3C)C2)cc1F (stereo not given)  Percent Effect             19.5
11  Cc1cnn(CC2CCCN2C(=O)c2cc3c(F)cccc3[nH]2)c1 (stereo not given)  Percent Effect              5.2
12  COCCc1noc(CN2CCCCC2Cn2nc(C)cc2C)n1 (stereo not given)  Percent Effect             -2.6
13  CN1CC(c2ccccc2)CC2(CCN(CC(=O)N(C)C)CC2)C1 (stereo not given)  Percent Effect             5.41
14  Cc1nc(CN(C)C2CCN(Cc3ccc4ccccc4n3)C2)no1 (stereo not given)  Percent Effect             -5.2
15  CC(C)c1cc(N2CCN(c3ccc(O)cc3)CC2)n2nccc2n1  Percent Effect             5.41
16   CCCc1n[nH]cc1C(=O)N1CCC(c2nccn2CCOC)CC1  Percent Effect             16.2
17  CCCn1ncc2c(C(=O)Nc3n[nH]c(SC)n3)cc(C3CC3)nc21  Percent Effect             14.7
18   COc1ccc(CN2CCC3(CC2)CCN(CC2CC2)C3=O)cc1  Percent Effect             19.5
19  CNC(=O)COc1ccccc1CNC1CCc2ncnn2C1 (stereo not given)  Percent Effect             2.56
20           Cc1noc(C)c1CN1CCN(Cc2nccn2C)CC1  Percent Effect             2.67
21  Cc1nc(CN(C)C2CCN(CCCOc3ccccc3)C2)no1 (stereo not given)  Percent Effect             23.4
22  Cn1cc(CN2CCCC23CCN(C(=O)c2cccn2C)CC3)cn1  Percent Effect            -6.49
23  Cc1nc(C)n(CC2CCCN2Cc2nc3ccccc3nc2C)n1 (stereo not given)  Percent Effect                0
24  CC(C)(C)n1ncc2c1NC(=O)CC2c1ccc(OCC(N)=O)cc1 (stereo not given)  Percent Effect             5.41
25  O=C(c1ccnnc1)N1C[C@@H](OCC2CCOCC2)[C@H]2OCCC[C@H]21  Percent Effect              1.3
